Reference source: PubChem BioAssay (NCI)

# Test system: HT29 colon
# assay method text: NCI tumour cell line growth inhibition, 48 h
quantity measured: TGI

[ask] What does the data say about its TGI? Entry: CCCC1NC(C#N)(C#N)C(CCC)NC1(C#N)C#N (configuration not stated)
[reply] > 55.7 µM

[ask] Param item = COC(=O)C1=Cc2cc3c(cc2[C@H](c2ccc4c(c2)OCO4)C1C(=O)OC)OCO3 (some centres not stated) ; retrieve measured TGI.
[reply] > 100 µM

[ask] Requested field: TGI. Item: COc1c(O)c2ccccc2c2cc(O)ccc12
[reply] 47.4 µM

[ask] Consider the compound shown here: CCNC(=S)N/N=C/c1cc(OC)ccc1O What is its recorded TGI?
[reply] > 100 µM

[ask] Give the measured TGI of O=C(c1ccccc1)c1nnn(Cc2cccc(Cl)c2)c1C(=O)c1ccccc1 .
[reply] > 100 µM

[ask] Would you mind telling me what TGI value was observed for CN(C)CCCn1c(Cc2ccccc2)nc2cc(C(F)(F)F)ccc21 ?
[reply] 42.4 µM

[ask] State the recorded TGI for this entry: c1ccc2c(c1)c1c(n2CCOCCN2CCCCC2)CCCC1
[reply] 24.6 µM

[ask] What TGI value was documented for this compound, CCN(CC)CCn1c(=N)n(CC(O)c2ccc(Cl)c(Cl)c2)c2ccccc21 (configuration not stated) ?
[reply] 12.1 µM

[ask] What measured TGI goes with CSc1nc2ccccc2c(=O)n1/N=C1\C(=O)N(CN2CCOCC2)c2ccc(Cl)cc21 ?
[reply] > 100 µM

[ask] Tell me the measured TGI of CCCSc1cc(Cl)c(C)cc1S(=O)(=O)n1ccnc1OCCCN(C)C , please.
[reply] > 100 µM

[ask] Given the entry CCOP1(=O)OCC2OC(n3cnc4c(N)ncnc43)C(O)C2O1 (configuration not stated) , report its measured TGI.
[reply] > 100 µM

[ask] So what does the record say about TGI for COc1ccc(C(=O)CC2(O)C(=O)Nc3c(Cl)ccc(Cl)c32)cc1 (configuration not stated) ?
[reply] > 57.9 µM

[ask] Could you share which TGI value was measured for O=C1COC(c2ccccc2O)=NN1CCCN1CCCC1 ?
[reply] > 100 µM

[ask] Entry C=C1C(=O)OC(CCCCCCCC)C1C(=O)O (configuration not stated) : reported TGI = ?
[reply] 47.2 µM

[ask] Could you share which TGI value was measured for CCCOC(=O)C1CCC(=O)N1C(=O)C(Cl)Cl (configuration not stated) ?
[reply] > 100 µM

[ask] Item under review: Cc1ncc(C(=O)Nc2ccc(CN3CCN(C)CC3)c(C(F)(F)F)c2)cc1C#Cc1c(N)ncc2ccc(C#N)cc12 . Reported TGI?
[reply] 7.74 µM

[ask] # TGI lookup, item COc1ccc(C(=O)c2cc3c(N)c(C(=O)Nc4cccc(Cl)c4)sc3nc2C)cc1
[reply] > 33.3 µM

[ask] Consider the compound CC1CN(CCO)CC(C)O1 (configuration not stated) and give its measured TGI.
[reply] > 100 µM

[ask] Which TGI value is on record for CC1(C)C2CCC1(CS(=O)(=O)Nc1ccccc1)C(=O)C2 (configuration not stated) ?
[reply] > 100 µM

[ask] # lookup: TGI of CC(=O)N1N=C(c2c(O)ccc3ccccc23)CC1C(=O)c1ccco1 (configuration not stated)
[reply] > 100 µM

[ask] Consider the compound CCN1CCN(C(=O)[C@]23CC[C@@H](C)[C@H](C)[C@@H]2C2=CC[C@@H]4[C@@]5(C)C/C(=C/c6cccnc6)C(=O)C(C)(C)[C@@H]5CC[C@@]4(C)[C@]2(C)CC3)CC1 and give its measured TGI.
[reply] 5.36 µM

[ask] Item O=C(NCC1Nc2ccncc2S(=O)(=O)N1)c1ccc(Br)cc1 (configuration not stated) has what recorded TGI?
[reply] > 100 µM

* * *

# Tested on: NCI-H522 lung
# assay method text: NCI tumour cell line growth inhibition, 48 h
quantity measured: GI50

[ask] Request the reported GI50 associated with CC/C(=C(\c1ccccc1)c1ccc(OCCN(C)C)cc1)c1ccccc1
[reply] 1420 nM

[ask] If you can, please state the reported GI50 value of COc1cc([C@@H]2c3cc4c(cc3[C@H](OC3OC5COC(c6ccccc6)OC5C(O)C3O)[C@H]3COC(=O)[C@H]23)OCO4)cc(OC)c1OC (stereo partly specified) .
[reply] 322 nM

[ask] # lookup: GI50 of CC/C=C/[C@@H]1C=C[C@@H]2CCC[C@H]2[C@@H]1CC[C@H](O)[C@H](C)N
[reply] 1820 nM

[ask] Dear colleague, I am looking for the recorded GI50 of the following compound: C=C1C(=O)OC(CCCCCCCC)C1C(=O)O (stereo unspecified)
[reply] 7570 nM

[ask] For the compound Cc1c(CNc2ccc(Cl)c(C(=O)NC(CC(=O)O)C(=O)O)c2)ccc2nc(N)nc(N)c12 (stereo unspecified) , what GI50 is on record?
[reply] 211000 nM

[ask] Entry C=C1C(=O)O[C@@H]2[C@@H]3O[C@@](C)(CC/C=C(\C)CCC[C@@H]2C)[C@H](O)C[C@@H]13 : reported GI50 = ?
[reply] 2110 nM

* * *

# Tested on: SF-539 CNS
# assay method text: NCI tumour cell line growth inhibition, 48 h
Grouping key: TGI. Bins: LOW = under 4 µM, MEDIUM = from 4 µM up to 20 µM, HIGH = 20 µM and over

[ask] Field: class (TGI) — entry: CC(C)CC(=O)NC(Nc1ccc(S(=O)(=O)Nc2ncccn2)cc1)(C(F)(F)F)C(F)(F)F
[reply] HIGH

[ask] Band of Cc1ccc(S(=O)(=O)NC(=O)NC(Cc2c[nH]c3ccccc23)C(=O)O)cc1 (stereo not given) ?
[reply] HIGH

[ask] Record COc1cc[c]([Hg][Cl])cc1 — which class?
[reply] MEDIUM

[ask] In plain terms, what class is COc1ccc(C(=O)/C=C/c2ccc(Cl)cc2)cc1S(N)(=O)=O ?
[reply] LOW

[ask] Hey, which category is CC(C)(O)Cn1c(=O)c(Oc2ccc(F)cc2F)cc2cnc(NC3CCOCC3)nc21 in, do you know?
[reply] HIGH

[ask] Hi there! Could you help me figure out the category for C=CCOc1ccc(C2c3c([nH][nH]c3=O)CC(O)(OCC)C2C(=O)OCC)cc1OC (stereo not given) please?
[reply] HIGH

[ask] Classify this molecule: O=C(CC1Sc2ccccc2NC1=O)Nc1cccc(Cl)c1 (stereo not given)
[reply] HIGH

[ask] In plain terms, what class is O=C(Cn1ccnc1[N+](=O)[O-])NCCO ?
[reply] HIGH

[ask] # classify by TGI band: CCCCc1ccc2nc(NC(=O)OC)[nH]c2c1
[reply] LOW

[ask] Assign a bin to Clc1ccc(Cl)c(N/N=C\c2c[nH]c3ccccc23)c1
[reply] HIGH

[ask] Consider CC1(C)O[C@H](C(=O)O)[C@@H](C(=O)O)O1 . To which TGI class does it belong?
[reply] HIGH

[ask] Please let me know in which category the item O=c1ccc2nc(-c3ccccc3)nn(-c3ccccc3)c-2c1 belongs.
[reply] LOW

[ask] Determine which band this molecule sits in: c1ccc([CH2][Sn]([CH2]c2ccccc2)([S]c2cccc3cccnc23)[S]c2cccc3cccnc23)cc1
[reply] LOW

[ask] # bin lookup: classify CCSSCS(C)(=O)=O by its TGI
[reply] HIGH

[ask] Lab note: which band did C(=N\Nc1ncc(-c2cc3cc4c(cc3o2)OCO4)s1)/c1c[nH]c2ccccc12 land in?
[reply] LOW

[ask] Hi there! Could you help me figure out the category for N#Cc1c(N)nn(C(=O)c2ccc(NC(=O)c3ccccn3)cc2)c1-c1ccc(Cl)cc1 please?
[reply] MEDIUM

[ask] // bin(item) where item = CN1CCC(O)C(CNC23CC4CC(CC(C4)C2)C3)C1 (stereo not given)
[reply] HIGH

[ask] Looking at CSc1nc2ccccc2c(=O)n1/N=C1\C(=O)N(CN2CCOCC2)c2ccc(Cl)cc21 , which class would you pick?
[reply] HIGH

[ask] Which class is correct for the following molecule? CCOC(=O)c1cnc2ccc(Cl)cc2c1NCCCN(C)C
[reply] HIGH

[ask] Class? Entry: O=C1Cc2c(-c3ccc(Cl)cc3)cc(-c3ccccc3)nc2-c2ccccc2N1
[reply] HIGH

[ask] Band for the recorded TGI of COc1ccc(NC(=O)c2ccc(NC3=C(Cl)C(=O)N(Cc4ccccc4)C3=O)cc2)cc1 ?
[reply] MEDIUM

[ask] Hey, which category is COC(=O)c1c(OC(C)=O)ccc2c1c1c(OC(C)=O)c3ccccc3c(OC(C)=O)c1n2Cc1cc(OC)cc(OC)c1 in, do you know?
[reply] MEDIUM

[ask] Which class is correct for the following molecule? CCN(CC)CCn1c(=N)n(CC(O)c2ccc(Cl)c(Cl)c2)c2ccccc21 (stereo not given)
[reply] MEDIUM

[ask] Band for COc1ccccc1/C=C1\COc2ccc(O)c(O)c2C1=O ?
[reply] LOW

[ask] Returns: class label. Input: COCCNC(=O)C1C(=O)N(CCOC)C(=O)/C1=N/N (stereo not given)
[reply] HIGH

[ask] Class label required: COc1c(-c2cc(C)c(Cl)c(=O)[nH]2)c(O)c(OC)c2occc12
[reply] HIGH

[ask] Tag the class for CCOC(=O)c1ccc(-c2cc(C)[nH]n2)[nH]1
[reply] HIGH

[ask] Input c1ccc2c(c1)c1c(n2CCOCCN2CCCCC2)CCCC1 ; output its category
[reply] HIGH

[ask] Band for COCn1c2ccc(OC(C)=O)cc2c2c(=O)oc(C)nc21 ?
[reply] HIGH

[ask] Any idea which band O=[N+]([O-])C(/C(Cl)=C(/Cl)N1CCOCC1)=C1\NCCO1 is in?
[reply] HIGH

[ask] Sort CC1CN=C(Nc2cccc(C(F)(F)F)c2)S1 (stereo not given) into one of the categories.
[reply] HIGH

[ask] Category of Cc1c(-c2ccccc2)c(C#N)c2nnn(-c3ccccc3)c(=O)n12 , please.
[reply] HIGH

[ask] For the record O=P(O)(O)OC1C(OP(=O)(O)O)C(OP(=O)(O)O)C(OP(=O)(O)O)C(OP(=O)(O)O)C1OP(=O)(O)O (stereo not given) , report the class its TGI corresponds to.
[reply] HIGH

[ask] State the class of the molecule shown: CN(Cc1c2ccccc2cc2ccccc12)S(=O)(=O)c1ccc(-c2c3nc(c(-c4ccc(S(=O)(=O)N(C)Cc5c6ccccc6cc6ccccc56)cc4)c4ccc([nH]4)c(-c4ccc(S(=O)(=O)N(C)Cc5c6ccccc6cc6ccccc56)cc4)c4nc(c(-c5ccc(S(=O)(=O)N(C)Cc6c7ccccc7cc7ccccc67)cc5)c5ccc2[nH]5)C=C4)C=C3)cc1
[reply] HIGH

[ask] Hey, which category is CCCCC1(N=[N+]=[N-])C(=O)c2cccc3c2N(CCC3)C1=O (stereo not given) in, do you know?
[reply] HIGH

[ask] Class label required: COc1ccc(C(=O)CC2(O)C(=O)Nc3c(Cl)ccc(Cl)c32)cc1 (stereo not given)
[reply] MEDIUM

[ask] Lab note: sort Cn1ccnc1CCc1ccc(F)cc1F into the matching TGI band.
[reply] HIGH

[ask] In plain terms, what class is CCOC(=O)C1=CN=C2C(=O)N(c3ccccc3)N(C)C2(C)C1=N (stereo not given) ?
[reply] HIGH

[ask] Field: class (TGI) — entry: Cc1cc(S(=O)(=O)Nc2nc3ccsc3c(=O)n2N)c(S)cc1Cl
[reply] HIGH
